assay_target: JAK3 (Homo sapiens)
Sequence (P52333 whole entry): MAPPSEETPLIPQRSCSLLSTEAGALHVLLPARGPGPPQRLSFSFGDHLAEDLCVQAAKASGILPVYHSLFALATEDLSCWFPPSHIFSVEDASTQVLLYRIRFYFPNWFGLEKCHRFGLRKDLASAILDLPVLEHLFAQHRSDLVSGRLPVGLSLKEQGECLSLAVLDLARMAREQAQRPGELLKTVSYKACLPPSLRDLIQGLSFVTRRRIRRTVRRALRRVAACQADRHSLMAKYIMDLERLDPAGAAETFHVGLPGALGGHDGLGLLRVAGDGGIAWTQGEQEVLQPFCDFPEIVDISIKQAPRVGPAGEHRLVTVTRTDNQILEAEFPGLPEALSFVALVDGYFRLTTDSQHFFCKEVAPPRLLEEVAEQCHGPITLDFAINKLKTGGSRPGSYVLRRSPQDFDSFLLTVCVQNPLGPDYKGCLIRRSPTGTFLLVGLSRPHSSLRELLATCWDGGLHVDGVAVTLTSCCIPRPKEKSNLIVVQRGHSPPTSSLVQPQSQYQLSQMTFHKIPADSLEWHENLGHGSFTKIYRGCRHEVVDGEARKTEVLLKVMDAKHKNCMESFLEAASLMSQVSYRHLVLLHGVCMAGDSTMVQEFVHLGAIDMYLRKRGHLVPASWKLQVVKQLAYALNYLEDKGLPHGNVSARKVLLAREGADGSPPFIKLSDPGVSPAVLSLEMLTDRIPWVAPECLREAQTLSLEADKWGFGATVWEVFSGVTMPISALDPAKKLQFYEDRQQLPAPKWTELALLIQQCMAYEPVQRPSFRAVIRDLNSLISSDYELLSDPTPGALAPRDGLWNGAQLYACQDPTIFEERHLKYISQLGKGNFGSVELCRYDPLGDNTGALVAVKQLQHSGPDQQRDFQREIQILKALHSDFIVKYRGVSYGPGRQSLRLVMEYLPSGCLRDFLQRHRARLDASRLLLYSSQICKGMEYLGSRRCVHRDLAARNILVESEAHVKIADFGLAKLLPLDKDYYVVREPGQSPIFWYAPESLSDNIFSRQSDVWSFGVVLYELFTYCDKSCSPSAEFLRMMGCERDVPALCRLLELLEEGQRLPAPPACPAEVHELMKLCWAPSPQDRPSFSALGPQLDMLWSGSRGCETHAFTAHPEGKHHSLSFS
experimental_endpoint: Ki

Ki value, target or system JAK3 (Homo sapiens), for `O=C(c1nc(-c2oncc2-c2cccc(F)c2F)c[nH]1)N1CC=CC1` : < 1 µM
